System: PC-3
Assay: Cytotoxicity against human PC3 cells at 10 uM after 48 hrs by sulforhodamine B assay relative to control
Type: functional
In plain terms, low Activity, meaning strictly below 90%, gives t, and everything else gives f.

- smiles_structure: "O=C(CN1CCCC1)Nc1ccc2c(c1)C(=O)c1cc(NC(=O)CN3CCCC3)ccc1-2"
  class_assignment: "t"
- smiles_structure: "CCNCC(=O)Nc1ccc2c(c1)C(=O)c1cc(NC(=O)CNCC)ccc1-2"
  class_assignment: "t"
- smiles_structure: "CCSCCC(=O)Nc1ccc2c(c1)C(=O)c1cc(NC(=O)CCSCC)ccc1-2"
  class_assignment: "f"
- smiles_structure: "CCCSCC(=O)Nc1ccc2c(c1)C(=O)c1cc(NC(=O)CSCCC)ccc1-2"
  class_assignment: "f"
- smiles_structure: "CCNCCC(=O)Nc1ccc2c(c1)C(=O)c1cc(NC(=O)CCNCC)ccc1-2"
  class_assignment: "f"
- smiles_structure: "O=C(CCN1CCOCC1)Nc1ccc2c(c1)C(=O)c1cc(NC(=O)CCN3CCOCC3)ccc1-2"
  class_assignment: "f"
- smiles_structure: "CN1CCN(CC(=O)Nc2ccc3c(c2)C(=O)c2cc(NC(=O)CN4CCN(C)CC4)ccc2-3)CC1"
  class_assignment: "f"
- smiles_structure: "CN1CCN(CCC(=O)Nc2ccc3c(c2)C(=O)c2cc(NC(=O)CCN4CCN(C)CC4)ccc2-3)CC1"
  class_assignment: "f"
- smiles_structure: "CCCCNCC(=O)Nc1ccc2c(c1)C(=O)c1cc(NC(=O)CNCCCC)ccc1-2"
  class_assignment: "t"
- smiles_structure: "CCCNCC(=O)Nc1ccc2c(c1)C(=O)c1cc(NC(=O)CNCCC)ccc1-2"
  class_assignment: "t"

----------
Tested on: SNB-75
Experiment: Cytotoxicity against human SNB75 cells at 10 uM after 48 hrs by sulforhodamine B assay relative to control
Assay type: functional

- smiles_structure: "CCCNCC(=O)Nc1ccc2c(c1)C(=O)c1cc(NC(=O)CNCCC)ccc1-2"
  units: "%"
  Activity: 90.2
- smiles_structure: "CCCSCC(=O)Nc1ccc2c(c1)C(=O)c1cc(NC(=O)CSCCC)ccc1-2"
  units: "%"
  Activity: 88.25
- smiles_structure: "CN1CCN(CCC(=O)Nc2ccc3c(c2)C(=O)c2cc(NC(=O)CCN4CCN(C)CC4)ccc2-3)CC1"
  units: "%"
  Activity: 77.89
- smiles_structure: "CCNCCC(=O)Nc1ccc2c(c1)C(=O)c1cc(NC(=O)CCNCC)ccc1-2"
  units: "%"
  Activity: 92.33
- smiles_structure: "O=C(CN1CCCC1)Nc1ccc2c(c1)C(=O)c1cc(NC(=O)CN3CCCC3)ccc1-2"
  units: "%"
  Activity: 88.15
- smiles_structure: "O=C(CCN1CCOCC1)Nc1ccc2c(c1)C(=O)c1cc(NC(=O)CCN3CCOCC3)ccc1-2"
  units: "%"
  Activity: 82.97
- smiles_structure: "CCNCC(=O)Nc1ccc2c(c1)C(=O)c1cc(NC(=O)CNCC)ccc1-2"
  units: "%"
  Activity: 92.67
- smiles_structure: "CCSCCC(=O)Nc1ccc2c(c1)C(=O)c1cc(NC(=O)CCSCC)ccc1-2"
  units: "%"
  Activity: 92.1
- smiles_structure: "CN1CCN(CC(=O)Nc2ccc3c(c2)C(=O)c2cc(NC(=O)CN4CCN(C)CC4)ccc2-3)CC1"
  units: "%"
  Activity: 87.76
- smiles_structure: "CCCCNCC(=O)Nc1ccc2c(c1)C(=O)c1cc(NC(=O)CNCCCC)ccc1-2"
  units: "%"
  Activity: 36.53
